Measured inhibition at 10 µM by item
System: HOP-62
METHOD: NCI anticancer screening, Non-Small Cell Lung Cancer HOP-62
Format: cell-based
ASSAY CONDITIONS: Homo sapiens; HOP-62, 10 μM; read-out: % Growth Inhibition (GI %)
Give just the numeric value; % need not be written.

Please review the following examples before continuing.
# COMPOUND, TESTED TARGET, UNIT DESCRIPTOR, inhibition at 10 µM
records = [
    ("O=C(c1nc2ccccc2[nH]1)[C@H]1[C@H](c2cccc(F)c2)C2CSCN2[C@]12C(=O)Nc1ccccc12 (some centres unmarked) [Compound 6m]", "HOP-62", "%", 97.9),
    ("O=C(c1nc2ccccc2[nH]1)[C@H]1[C@H](c2cccc(O)c2)C2CSCN2[C@]12C(=O)Nc1ccccc12 (some centres unmarked) [Compound 6h]", "HOP-62", "%", 96.4),
    ("O=C(c1nc2ccccc2[nH]1)[C@H]1[C@H](c2ccc(Cl)cc2)C2CSCN2[C@]12C(=O)Nc1ccccc12 (some centres unmarked) [Compound 6b]", "HOP-62", "%", 91.7),
    ("O=C(c1nc2ccccc2[nH]1)[C@H]1[C@H](c2ccccc2)C2CSCN2[C@]12C(=O)Nc1ccccc12 (mixture of isomers) [Compound 6a]", "HOP-62", "%", 99.3),
    ("CN(C)c1ccc([C@@H]2C3CSCN3[C@]3(C(=O)Nc4ccccc43)[C@H]2C(=O)c2nc3ccccc3[nH]2)cc1 (some centres unmarked) [Compound 6k]", "HOP-62", "%", 95.7),
    ("O=C(c1nc2ccccc2[nH]1)[C@H]1[C@H](c2ccc(Cl)cc2Cl)C2CSCN2[C@]12C(=O)Nc1ccccc12 (some centres unmarked) [Compound 6g]", "HOP-62", "%", 80.3),
    ("O=C(c1nc2ccccc2[nH]1)[C@H]1[C@H](c2ccc(F)cc2)C2CSCN2[C@]12C(=O)Nc1ccccc12 (some centres unmarked) [Compound 6f]", "HOP-62", "%", 104),
    ("O=C(c1nc2ccccc2[nH]1)[C@H]1[C@H](c2ccc(C(F)(F)F)cc2)C2CSCN2[C@]12C(=O)Nc1ccccc12 (some centres unmarked) [Compound 6c]", "HOP-62", "%", 89.5),
    ("O=C(c1nc2ccccc2[nH]1)[C@H]1[C@H](c2cccs2)C2CSCN2[C@]12C(=O)Nc1ccccc12 (some centres unmarked) [Compound 6e]", "HOP-62", "%", 99.5),
    ("Cc1ccc([C@@H]2C3CSCN3[C@]3(C(=O)Nc4ccccc43)[C@H]2C(=O)c2nc3ccccc3[nH]2)cc1 (mixture of isomers) [Compound 6d]", "HOP-62", "%", 105),
]

Q: For the compound O=C(c1nc2ccccc2[nH]1)[C@H]1[C@H](c2ccc(Br)cc2)C2CSCN2[C@]12C(=O)Nc1ccccc12 (some centres unmarked) [Compound 6l] , report inhibition at 10 µM.
A: 88.7

Q: For the compound COc1cc([C@@H]2C3CSCN3[C@]3(C(=O)Nc4ccccc43)[C@H]2C(=O)c2nc3ccccc3[nH]2)cc(OC)c1OC (some centres unmarked) [Compound 6i] , report inhibition at 10 µM.
A: 104

Q: For the compound O=C(c1nc2ccccc2[nH]1)[C@H]1[C@H](c2ccccc2O)C2CSCN2[C@]12C(=O)Nc1ccccc12 (some centres unmarked) [Compound 6j] , report inhibition at 10 µM.
A: 85.2

Q: For the compound O=C(c1nc2ccccc2[nH]1)[C@H]1[C@H](c2ccco2)C2CSCN2[C@]12C(=O)Nc1ccccc12 (some centres unmarked) [Compound 6n] , report inhibition at 10 µM.
A: 99.8
